# Test system: IctP (PA0884) (Pseudomonas aeruginosa, UniProt Q9I561)
# Construct: SBP domain (pa0884), recombinant from E. coli
# Sequence (Q9I561 entry or part of it): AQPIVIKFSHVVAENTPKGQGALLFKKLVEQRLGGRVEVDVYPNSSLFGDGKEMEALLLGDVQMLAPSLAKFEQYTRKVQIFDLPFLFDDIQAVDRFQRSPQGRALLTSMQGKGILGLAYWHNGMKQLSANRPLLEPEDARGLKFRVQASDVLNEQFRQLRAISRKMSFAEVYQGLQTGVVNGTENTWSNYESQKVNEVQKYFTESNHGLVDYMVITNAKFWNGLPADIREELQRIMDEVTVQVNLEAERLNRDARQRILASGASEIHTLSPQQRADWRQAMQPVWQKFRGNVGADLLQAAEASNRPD
# Protocol text: crystal structure ([…] Å); intrinsic tryptophan fluorescence titration; nanoDSF (~[…] °C shift)
# Type: binding
Result type: Kd (µM)
Reply numerically in µM, unit not repeated.

Query :: Given the compound O=C(O)CCC(=O)O [succinate] , what is its reported Kd?
Result :: 32.6
